Measured relative viability of individual entries
System: NCI-H1299
Assay: relative viability (nuclei count vs DMSO), 5 days (fraction); higher = more cells survive
Conditions: first compound 0.8 µM
observationType: relative viability

{"compound": "Nc1cccc2c1CN(C1CCC(=O)NC1=O)C2=O (stereo not given) [Lenalidomide] + CS(=O)(=O)CCNCc1ccc(-c2ccc3ncnc(Nc4ccc(OCc5cccc(F)c5)c(Cl)c4)c3c2)o1 [Lapatinib] (partner 2 µM)", "targetSystem": "NCI-H1299", "testResult": 0.873}
{"compound": "Nc1cccc2c1CN(C1CCC(=O)NC1=O)C2=O (stereo not given) [Lenalidomide] + COc1cc2c(Oc3ccc(NC(=O)C4(C(=O)Nc5ccc(F)cc5)CC4)cc3F)ccnc2cc1OCCCN1CCOCC1 [Foretinib] (partner 0.25 µM)", "targetSystem": "NCI-H1299", "testResult": 1.08}
{"compound": "Nc1cccc2c1CN(C1CCC(=O)NC1=O)C2=O (stereo not given) [Lenalidomide] + C[C@]1(O)C[C@@H](c2nc(-c3ccc4ccc(-c5ccccc5)nc4c3)c3c(N)nccn32)C1 [Linsitinib] (partner 1 µM)", "targetSystem": "NCI-H1299", "testResult": 0.968}
{"compound": "Nc1cccc2c1CN(C1CCC(=O)NC1=O)C2=O (stereo not given) [Lenalidomide] + CC1(C)CCC(c2ccc(Cl)cc2)=C(CN2CCN(c3ccc(C(=O)NS(=O)(=O)c4ccc(N[C@H](CCN5CCOCC5)CSc5ccccc5)c(S(=O)(=O)C(F)(F)F)c4)cc3)CC2)C1 [Navitoclax] (partner 0.5 µM)", "targetSystem": "NCI-H1299", "testResult": 1.04}
{"compound": "Nc1cccc2c1CN(C1CCC(=O)NC1=O)C2=O (stereo not given) [Lenalidomide] + CC(C)C[C@H](NC(=O)[C@H](Cc1ccccc1)NC(=O)c1cnccn1)B(O)O [Bortezomib] (partner 0.002 µM)", "targetSystem": "NCI-H1299", "testResult": 1.01}

----------
System: NCI-H838
Test: relative viability (nuclei count vs DMSO), 5 days (fraction); higher = more cells survive
Conditions: first compound 0.06325 µM
Measured relative viability of individual entries
observationType: relative viability

{"molecule": "CCNC(=O)c1noc(-c2cc(C(C)C)c(O)cc2O)c1-c1ccc(CN2CCOCC2)cc1 [Luminespib] + O=C(c1cc(Cc2n[nH]c(=O)c3ccccc23)ccc1F)N1CCN(C(=O)C2CC2)CC1 [Olaparib] (partner 8 µM)", "testResult": 0.122}
{"molecule": "CCNC(=O)c1noc(-c2cc(C(C)C)c(O)cc2O)c1-c1ccc(CN2CCOCC2)cc1 [Luminespib] + C[C@]1(O)C[C@@H](c2nc(-c3ccc4ccc(-c5ccccc5)nc4c3)c3c(N)nccn32)C1 [Linsitinib] (partner 1 µM)", "testResult": 0.13}
{"molecule": "CCNC(=O)c1noc(-c2cc(C(C)C)c(O)cc2O)c1-c1ccc(CN2CCOCC2)cc1 [Luminespib] + CS(=O)(=O)N1CCN(Cc2cc3nc(-c4cccc5[nH]ncc45)nc(N4CCOCC4)c3s2)CC1 [Pictilisib] (partner 1 µM)", "testResult": 0.117}
{"molecule": "CCNC(=O)c1noc(-c2cc(C(C)C)c(O)cc2O)c1-c1ccc(CN2CCOCC2)cc1 [Luminespib] + CC(=O)Nc1cccc(-n2c(=O)n(C3CC3)c(=O)c3c(Nc4ccc(I)cc4F)n(C)c(=O)c(C)c32)c1 [Trametinib] (partner 0.02 µM)", "testResult": 0.093}
{"molecule": "CCNC(=O)c1noc(-c2cc(C(C)C)c(O)cc2O)c1-c1ccc(CN2CCOCC2)cc1 [Luminespib] + Cc1nc(NC(=O)N2CCC[C@H]2C(N)=O)sc1-c1ccnc(C(C)(C)C(F)(F)F)c1 [Alpelisib] (partner 2 µM)", "testResult": 0.168}
